Please provide measured surface tension liquid-gas for the entries that follow.
- MEASUREMENT_DESCRIPTION: xn = mol fraction of the nth substance listed
- TEST_CONTEXT: 318.15 K, x1 = 0.2
All answers are understood in mN/m, so give the number only.

Task item: If you can, please state the reported surface tension liquid-gas value of CCCC(=O)OCCC(C)C [3-methylbutyl butanoate] + CCO .
Reply: 21.5

Task item: Cool, now CCCCCC(=O)OCC [ethyl hexanoate] + CCO
Reply: 21.7

Task item: Subsequent entry: CCOC(=O)c1ccccc1 [ethyl benzoate] + CCO
Reply: 23.5

Task item: And the next one, CCCCCCCC(=O)OCC [ethyl octanoate] + CCO ?
Reply: 22.3

Task item: Next: CC(=O)OCCC(C)C [3-methylbutyl ethanoate] + CCO
Reply: 20.8

Task item: Then CCOC(=O)Cc1ccccc1 [ethyl phenylacetate] + CCO ?
Reply: 22.9

###

- MEASUREMENT_DESCRIPTION: xn = mol fraction of the nth substance listed
- TEST_CONTEXT: 298.15 K, x1 = 0.6
QUANTITY_NAME: surface tension liquid-gas (mN/m)
Output spec: scalar in mN/m, unitless text.

Task item: Which surface tension liquid-gas is listed for CCCC(=O)OCCC(C)C [3-methylbutyl butanoate] + CCO ?
Reply: 23.9

Task item: Input CCCCCCCC(=O)OCC [ethyl octanoate] + CCO
Reply: 25.6

Task item: Repeat for the following compound: CCOC(=O)c1ccccc1 [ethyl benzoate] + CCO
Reply: 29.7

Task item: Can you handle CCCCCC(=O)OCC [ethyl hexanoate] + CCO next?
Reply: 24.6

Task item: Cool, now CCOC(=O)Cc1ccccc1 [ethyl phenylacetate] + CCO
Reply: 29.7

Task item: Same question, CC(=O)OCCC(C)C [3-methylbutyl ethanoate] + CCO this time
Reply: 23.5

###

- MEASUREMENT_DESCRIPTION: refractive index (Na D-line) (dimensionless); xn = mol fraction of the nth substance listed
- TEST_CONTEXT: 318.15 K; 100.5 kPa; Liquid; Standard Abbe refractometry; x1 = 0.85
Can you tell me refractive index for the items I'm about to list?
Respond numerically, and do not add a unit to the figure.

Task item: Recorded refractive index of CCOC(=O)c1ccccc1 [ethyl benzoate] + CCO , please.
Reply: 1.48449

Task item: How about CCCC(=O)OCCC(C)C [3-methylbutyl butanoate] + CCO ?
Reply: 1.3967

Task item: Now try CCCCCC(=O)OCC [ethyl hexanoate] + CCO .
Reply: 1.3933

Task item: Please give the result for CCOC(=O)Cc1ccccc1 [ethyl phenylacetate] + CCO too.
Reply: 1.47763

Task item: Could you do the same for CC(=O)OCCC(C)C [3-methylbutyl ethanoate] + CCO , please?
Reply: 1.3864

Task item: Input CCCCCCCC(=O)OCC [ethyl octanoate] + CCO
Reply: 1.40412

###

- TEST_CONTEXT: 308.15 K
QUANTITY_NAME: surface tension liquid-gas (mN/m)
Report the figure in mN/m without appending any unit label.

Task item: // returns reported surface tension liquid-gas for input CCOC(=O)Cc1ccccc1 [ethyl phenylacetate]
Reply: 33.5

Task item: Quick one: CCCCCC(=O)OCC [ethyl hexanoate]
Reply: 24.5

Task item: And the next one, CCCCCCCC(=O)OCC [ethyl octanoate] ?
Reply: 25.5

Task item: Field entry: CCOC(=O)c1ccccc1 [ethyl benzoate]
Reply: 33.3

Task item: Next entry: "CCO"
Reply: 21.5

Task item: And for CC(=O)OCCC(C)C [3-methylbutyl ethanoate] ?
Reply: 23.4

Task item: Again, but for CCCC(=O)OCCC(C)C [3-methylbutyl butanoate]
Reply: 24

Origin of the recorded values: the NIST ThermoML archive (doi:10.1021/je0601208)
